METHOD: self-splicing fitness, log relative to wild type (ln ratio); higher = more splicing; Tetrahymena group I intron in knt gene, E. coli kanamycin selection, DiMSum; sequences stand for … in CUCUCU…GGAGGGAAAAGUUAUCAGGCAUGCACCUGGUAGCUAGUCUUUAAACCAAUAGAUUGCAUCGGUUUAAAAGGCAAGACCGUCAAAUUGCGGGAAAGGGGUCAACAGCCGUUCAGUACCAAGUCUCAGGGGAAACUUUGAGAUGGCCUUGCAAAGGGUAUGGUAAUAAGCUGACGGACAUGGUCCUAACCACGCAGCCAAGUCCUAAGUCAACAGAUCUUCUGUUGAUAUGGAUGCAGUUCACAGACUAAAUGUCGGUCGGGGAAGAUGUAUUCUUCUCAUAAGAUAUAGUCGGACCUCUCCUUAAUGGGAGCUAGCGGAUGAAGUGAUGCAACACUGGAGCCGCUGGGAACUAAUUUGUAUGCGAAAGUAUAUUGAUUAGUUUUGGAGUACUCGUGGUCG;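 also: selection with 25 µg/mL kanamycin versus none on LB agar overnight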
CONDITION_CONTEXT: 37 °C
Give self-splicing fitness (ln) for every item shown.
Just the number, please, no unit after it.

# lookup: self-splicing fitness (ln) of GUAGAGCAAUAUUACGACCC 0.745

# lookup: self-splicing fitness (ln) of UAAGAGCAAUAUUACGUUAC -2.7

# lookup: self-splicing fitness (ln) of AUCUAGCAAUAUUACGUCCC -0.129

# lookup: self-splicing fitness (ln) of CUGCAGCAAUAUUACGCCCU -1.71

# lookup: self-splicing fitness (ln) of ACGUAGCAAUAUUACGCAGC -2.71

# lookup: self-splicing fitness (ln) of UGGUAGCAAUAUUACGAAGA -2.3

# lookup: self-splicing fitness (ln) of UAGAAGCAAUAUUACGGCAA -0.249

# lookup: self-splicing fitness (ln) of UAUAAGCAAUAUUACGUACG -0.0322

# lookup: self-splicing fitness (ln) of AUUAAGCAAUAUUACGACCA -0.571

# lookup: self-splicing fitness (ln) of ACCUAGCAAUAUUACGGGGA -0.794

# lookup: self-splicing fitness (ln) of CCAUAGCAAUAUUACGAUUU -2.37

# lookup: self-splicing fitness (ln) of UUUGAGCAAUAUUACGACGG -0.751

# lookup: self-splicing fitness (ln) of AUUAAGCAAUAUUACGGGUU -2.92

# lookup: self-splicing fitness (ln) of GGUCAGCAAUAUUACGAGUG -1.44

# lookup: self-splicing fitness (ln) of AGCCAGCAAUAUUACGCACU -0.259

# lookup: self-splicing fitness (ln) of AGAUAGCAAUAUUACGGGUC -2.36

# lookup: self-splicing fitness (ln) of ACAGAGCAAUAUUACGGUUU -1.81

# lookup: self-splicing fitness (ln) of GGCGAGCAAUAUUACGGGCG 0.0537

# lookup: self-splicing fitness (ln) of CUCUAGCAAUAUUACGGCUC -2.09

# lookup: self-splicing fitness (ln) of UCUGAGCAAUAUUACGCCAG -0.871

# lookup: self-splicing fitness (ln) of CAUCAGCAAUAUUACGGAGA -1.3

# lookup: self-splicing fitness (ln) of GCCAAGCAAUAUUACGCUGC -2.04

# lookup: self-splicing fitness (ln) of GCCUAGCAAUAUUACGAGAC 0.662

# lookup: self-splicing fitness (ln) of AGCCAGCAAUAUUACGCUGA -1.87

# lookup: self-splicing fitness (ln) of AGGAAGCAAUAUUACGCAUA -1.15

# lookup: self-splicing fitness (ln) of ACCUAGCAAUAUUACGGGAA -0.345

# lookup: self-splicing fitness (ln) of AUAUAGCAAUAUUACGGAAU 0.227

# lookup: self-splicing fitness (ln) of AGAUAGCAAUAUUACGUGAC -2.71

# lookup: self-splicing fitness (ln) of GUGUAGCAAUAUUACGACGG -0.904

# lookup: self-splicing fitness (ln) of GCGAAGCAAUAUUACGGUAU -0.774

# lookup: self-splicing fitness (ln) of UAACAGCAAUAUUACGUUUG -0.759

# lookup: self-splicing fitness (ln) of AUAUAGCAAUAUUACGCGAA -1.32

# lookup: self-splicing fitness (ln) of GACAAGCAAUAUUACGCGGC -3.11

# lookup: self-splicing fitness (ln) of GCCAAGCAAUAUUACGAGGA -0.561
